Data credit: patent US10513521B2

# System name: ALK2 (Mus musculus)
# Construct: The C2C12 cell line was selected for the measurement of ALK2 activity using BMP6 as the agonist; host or cells: C2C12
# Sequence (P37172 21-509): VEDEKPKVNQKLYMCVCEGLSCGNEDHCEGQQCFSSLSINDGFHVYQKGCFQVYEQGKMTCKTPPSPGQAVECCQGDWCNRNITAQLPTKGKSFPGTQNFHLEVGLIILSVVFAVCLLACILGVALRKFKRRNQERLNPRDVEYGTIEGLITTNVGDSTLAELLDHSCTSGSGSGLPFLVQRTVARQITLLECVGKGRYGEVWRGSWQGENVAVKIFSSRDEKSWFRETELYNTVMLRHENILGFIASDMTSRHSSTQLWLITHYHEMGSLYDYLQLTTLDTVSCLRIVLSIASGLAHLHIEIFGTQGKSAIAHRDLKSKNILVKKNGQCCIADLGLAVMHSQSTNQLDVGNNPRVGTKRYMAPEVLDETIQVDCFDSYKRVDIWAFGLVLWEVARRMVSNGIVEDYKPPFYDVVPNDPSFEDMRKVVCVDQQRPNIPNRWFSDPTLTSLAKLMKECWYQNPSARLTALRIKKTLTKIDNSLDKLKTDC
# Method: HTRF pSMAD1 cell-based ALK2 assay (C2C12 cells, BMP6 as agonist)
# Experimental conditions: HTRF assay, BMP6 as agonist, C2C12 cells; read-out: BMP6 HTRF
pIC50: −log10 of the molar value.
Measured attribute: pIC50

Molecule | Experimental value
C[C@@H]1CNC[C@H](C)N1c1ccc(-c2cnc3c(-c4cccc(C(C)(C)O)c4)cnn3c2)cc1 | 6.59

1. C[C@@H](O)c1cccc(-c2cnn3cc(-c4ccc(OC5(CN6CCCCC6)CC5)cc4)cnc23)c1
2. C[C@@H]1CNC[C@H](C)N1c1ccc(-c2cnc3c(-c4cccc5c(C(N)=O)cccc45)cnn3c2)cc1
3. CC(O)c1cccc(-c2cnn3cc(-c4ccc(OC5(CN6CCCCC6)CC5)cc4)cnc23)c1 (stereo not shown)
[Q] Given 3 molecules, produce a descending ranking by pIC50. Quick reminder: the answer is the labels in the order asked.
[A] 2, 3, 1

###

Reported IC50 values follow for various compounds
# System name: ALK5 (Homo sapiens)
# Sequence (P36897 34-503): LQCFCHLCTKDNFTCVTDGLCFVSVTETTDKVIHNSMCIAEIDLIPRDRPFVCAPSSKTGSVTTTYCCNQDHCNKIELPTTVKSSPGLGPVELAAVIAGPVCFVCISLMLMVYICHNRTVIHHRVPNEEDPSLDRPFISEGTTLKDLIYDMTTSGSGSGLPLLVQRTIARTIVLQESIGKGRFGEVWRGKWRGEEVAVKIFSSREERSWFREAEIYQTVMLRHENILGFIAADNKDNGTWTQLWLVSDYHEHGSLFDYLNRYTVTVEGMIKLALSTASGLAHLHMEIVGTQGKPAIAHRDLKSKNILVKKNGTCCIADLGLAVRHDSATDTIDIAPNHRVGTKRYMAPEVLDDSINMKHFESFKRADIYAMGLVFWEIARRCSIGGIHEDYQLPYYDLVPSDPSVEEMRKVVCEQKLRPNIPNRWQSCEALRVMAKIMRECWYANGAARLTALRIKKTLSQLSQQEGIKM
# Method: TR-FRET enzymatic ALK kinase assay, ALK5

Sample records with IC50:
Compound | IC50
C[C@@H]1CNC[C@H](C)N1c1ccc(-c2cnc3c(-c4ccc(S(=O)(=O)C(F)(F)F)cc4)cnn3c2)cc1 [Compound 45] | > 10 µM
CC(C)(CN1CCCCC1)Oc1ccc(-c2cnc3c(-c4ccc(C(N)=O)c5ccccc45)cnn3c2)cc1 [Compound 17] | 8.58 µM
C[C@@H]1CNC[C@H](C)N1c1ccc(-c2cnc3c(-c4ccc([S+](N)(=O)[O-])c(C(F)(F)F)c4)cnn3c2)cc1 [Compound 53] | > 10 µM

Now take the following compound into account.
Noted for CC1CCN(c2ccc(-c3cnc4c(-c5ccc(S(N)(=O)=O)c6ccccc56)cnn4c3)cn2)CC1 [Compound 47] : its IC50 reads > 10 µM

###

# System name: UniProt:P37023
# Sequence (P37023 22-503): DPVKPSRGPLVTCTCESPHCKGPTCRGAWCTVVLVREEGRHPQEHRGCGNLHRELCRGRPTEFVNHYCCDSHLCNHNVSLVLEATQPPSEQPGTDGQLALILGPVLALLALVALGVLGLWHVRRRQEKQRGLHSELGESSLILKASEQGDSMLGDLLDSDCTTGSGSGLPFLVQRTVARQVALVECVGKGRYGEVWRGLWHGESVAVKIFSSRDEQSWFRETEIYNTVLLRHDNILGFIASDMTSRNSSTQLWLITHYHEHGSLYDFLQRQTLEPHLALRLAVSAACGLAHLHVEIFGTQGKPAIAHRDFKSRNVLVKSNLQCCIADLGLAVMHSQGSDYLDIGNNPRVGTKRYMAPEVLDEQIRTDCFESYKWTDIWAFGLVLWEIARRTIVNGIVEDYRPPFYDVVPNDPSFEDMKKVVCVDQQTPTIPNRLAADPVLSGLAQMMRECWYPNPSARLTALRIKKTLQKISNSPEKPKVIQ
# Method: TR-FRET enzymatic ALK kinase assay, ALK1
Measured attribute: IC50 (nM)

Sample records with IC50:
Compound | IC50 (nM)
CC(O)c1cccc(-c2cnn3cc(-c4ccc(C5CCNCC5)cc4)cnc23)c1 (stereo not shown) | 310
CC(O)c1cccc(-c2cnn3cc(-c4ccc(CCN5CCOCC5)cc4)cnc23)c1 (stereo not shown) | 470

1. CC(O)c1cccc(-c2cnn3cc(-c4ccc(OC5(CN6CCC(O)CC6)CC5)cc4)cnc23)c1 (stereo not shown)
2. C[C@@H]1CNC[C@H](C)N1c1ccc(-c2cnc3c(-c4cc(C#N)cc(S(N)(=O)=O)c4)cnn3c2)cc1
[Q] Between 1 and 2 , which one shows the smaller IC50 number? When you have decided, please share the label of that item.
[A] 1
(1: 790 nM, 2: 1200 nM)
